Tested on: mouse macrophages (Balb C)
Assay: In vitro cytotoxicity using mouse macrophages (acute toxicity), MTT assay
Assay type: cell-based
Conditions: both, Balb C, mouse, 48 h, 5 μg/ml
Attribute Measured: % viable Cells (mean ± SEM) (%)

INSERT INTO results (molecule, attribute_measured, scale_unit, recorded_value) VALUES
  ('C[C@]12CC[C@H](OC(=O)c3ccc(O)cc3)CC1=CC[C@@H]1[C@@H]2CC[C@]2(C)C(=NO)CC[C@@H]12', '% viable Cells (mean ± SEM)', '%', 55.36),
  ('CC(C)(C)NC(=O)[C@H]1CC[C@H]2[C@@H]3CC[C@H]4NC(=O)C=C[C@]4(C)[C@H]3CC[C@]12C [Finasteride, reference compound]', '% viable Cells (mean ± SEM)', '%', 79.14),
  ('Cc1ccc(C(=O)O[C@H]2CC[C@@]3(C)C(=CC[C@@H]4[C@@H]3CC[C@]3(C)C(=NO)CC[C@@H]43)C2)cc1', '% viable Cells (mean ± SEM)', '%', 65.26),
  ('C[C@]12CC[C@H](OC(=O)c3ccc(Cl)cc3)CC1=CC[C@@H]1[C@@H]2CC[C@]2(C)C(=NO)CC[C@@H]12', '% viable Cells (mean ± SEM)', '%', 73.149),
  ('C[C@]12CC[C@H](OC(=O)c3ccc(N)cc3)CC1=CC[C@@H]1[C@@H]2CC[C@]2(C)C(=NO)CC[C@@H]12', '% viable Cells (mean ± SEM)', '%', 72.82),
  ('C[C@]12CC[C@H](OC(=O)c3ccc([N+](=O)[O-])cc3)CC1=CC[C@@H]1[C@@H]2CC[C@]2(C)C(=NO)CC[C@@H]12', '% viable Cells (mean ± SEM)', '%', 75.85);

meta.source: patent US8435975B2
